src = paper PMC5540273

Test system: PDPK1
Conditions: concentration: 1 μM, replicates: in singlicate; n = 1;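 further: KINOMEscan kinase panel screen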
MEASUREMENT_NAME: %Inh (%)
// note: answer is a bare numeric in %

Before answering, review these 2 worked examples.
CN(c1ccc(NC(=O)Nc2cccc(Cl)c2)cc1)c1ccnc(N)n1.Cl: 20
Cc1cc(-c2c(-c3ccc(F)cc3)ncn2CCCN2CCOCC2)nc(N)n1: 0

Then this molecule:
The value of %Inh measured for the molecule Cl.N#CCc1ccc(Nc2nccc(Nc3ccc(Oc4ccccc4)cc3)n2)cc1 turned out to be 17

---

System: PRKCQ
Details: concentration: 1 μM, replicates: in singlicate; n = 1
Each entry below lists one item and its recorded %Inh value.
Respond with the bare value in %.

// solved cases for %Inh follow
Cc1nn2c(=O)cc(N3CCO[C@H](C)C3)nc2n1Cc1cccc(Cl)c1Cl [GSK2373693]: 12
Cc1ccc(NC(=O)c2ccnc(N3CCCCC3)c2)cc1-c1ccc(C(=O)NCC2CC2)cc1 [GW775610]: 2
CNc1nccc(-c2ccc3c(N)n[nH]c3c2)n1 [GSK2206003]: 9
c1ccc(Oc2ccc(Nc3ccnc4cc(-c5ccc(CN6CCCCC6)o5)ccc34)cc2)nc1 [GW567143]: 10
CC(C)c1nc(-c2ccc(F)c(NS(=O)(=O)c3c(F)cccc3F)c2)c(-c2ccnc(Nc3ccc(N4CCOCC4)nc3)n2)s1 [GSK1804250]: 0

// assay PRKCQ, entry COc1ccc(C)c(Nc2ccnc(Nc3ccc(-c4cnc[nH]4)cc3)n2)c1.Cl [GW784041] , %Inh value = 0

GET /values?item= Cl.Cl.NC(CNC(=O)c1cc(Br)c(-c2ccnc3[nH]ccc23)s1)c1ccccc1 (stereo not drawn) [GSK1322949] &system= PRKCQ returns %Inh: 74

Summary line: NCCC(NC(=O)c1cc(Br)c(-c2ccnc3[nH]ccc23)s1)c1ccccc1.O=C(O)C(F)(F)F.O=C(O)C(F)(F)F (stereo not drawn) [GSK1307810] , PRKCQ, reported %Inh = 90

Case Nc1ncc(-c2ccc3nccc(-c4ccncc4)c3c2)cc1S(=O)(=O)N1CCCCC1 [GSK1693850] , PRKCQ, %Inh recorded as 0

---

Test system: BRSK2
Settings: concentration: 1 μM, replicates: in singlicate; n = 1
MEASUREMENT_NAME: %Inh (%)
Please state the figure in %; there is no need to write the unit.

get_value(item= Cc1cccc(Nc2nc(NCCN)ncc2C(N)=O)c1 [GSK1292139] , readout=%Inh) returns 0

%Inh for CNc1nccc(-c2ccc3c(N)n[nH]c3c2)n1 [GSK2206003] is 15

Data point: Cc1nn2c(=O)cc(N3CCO[C@H](C)C3)nc2n1Cc1cccc(Cl)c1Cl [GSK2373693] ; %Inh = 0

The reported %Inh of the compound O=C(O)C(F)(F)F.O=c1[nH]ccc2nc(N[C@@H]3CCNC3)nc(Nc3ccc4c(c3)S(=O)(=O)CC4)c12 [GSK2181306] was 46

Record summary for CC(C)(C)c1ccc(C(=O)Nc2cn3cc(-n4ccnc4)ccc3n2)cc1 : reported %Inh = 0

The compound listed as Cc1cc(-c2ccnc(Nc3cccc(C#N)c3)n2)cc(C)c1O [GSK1440913] shows %Inh equal to 0

Looking up O=C(Nc1n[nH]c2nc(-c3ccccc3)ccc12)C1CC1 [SB-708999] , I found its %Inh recorded as 37

The compound listed as Nc1cccc(-c2ccc3c(N)n[nH]c3c2)c1 [GSK2193613] has a reported %Inh of 51

// sample COc1ccc(C)c(Nc2ccnc(Nc3ccc(-c4cnc[nH]4)cc3)n2)c1.Cl [GW784041] , its %Inh was 9

%Inh measured on CC(C)c1nc(-c2ccc(F)c(NS(=O)(=O)c3c(F)cccc3F)c2)c(-c2ccnc(Nc3ccc(N4CCOCC4)nc3)n2)s1 [GSK1804250] = 0
